Test system: Echinochloa crus-galli (ECHCG)
Assay: Glasshouse assay for herbicidal activity, pre-/post-emergence (percentage phytotoxicity)
Type: in vivo
Details: Echinochloa crus-galli, post-emergence, 360 h, Rate 250 g/ha; post-emergence; visual assessment 15 DAA; 100%=total damage, 0%=no damage; read-out: Post-emergence herbicidal activity (percentage phytotoxicity), ECHCG POST
Outcome label depends on pest or weed control at 250 g/ha relative to 90%: at/above gives MET, below gives NOT MET.

Study these solved cases before continuing.
[[record]]
molecule = "Cc1cc(C)c(C2C(=O)CC(CCNC(=S)NC(=O)c3ccccc3)C2=O)c(C)c1 (stereo not shown)"
system = "Echinochloa crus-galli (ECHCG)"
label_class = "NOT MET"

[[record]]
molecule = "Cc1cc(-n2cc(Cl)cn2)cc(C)c1C1C(=O)CC(CCNc2ccc([N+](=O)[O-])cn2)C1=O (stereo not shown)"
system = "Echinochloa crus-galli (ECHCG)"
label_class = "MET"

[[record]]
molecule = "Cc1cc(C)c(C2C(=O)CC(CCNS(=O)(=O)c3ccc(F)cc3)C2=O)c(C)c1 (stereo not shown)"
system = "Echinochloa crus-galli (ECHCG)"
label_class = "NOT MET"

[[record]]
molecule = "Cc1cc(C)c(C2C(=O)CC(CCNS(=O)(=O)c3ccc(Cl)cc3Cl)C2=O)c(C)c1 (stereo not shown)"
system = "Echinochloa crus-galli (ECHCG)"
label_class = "NOT MET"

[[record]]
molecule = "Cc1cc(C)c(C2C(=O)CC(CCNC(=O)NC(=O)c3ccccn3)C2=O)c(C)c1 (stereo not shown)"
system = "Echinochloa crus-galli (ECHCG)"
label_class = "NOT MET"


Here is the next item to consider.
Would you say CC#Cc1cc(C)c(C2C(=O)CC(CCNC(=O)N(C)c3ccccn3)C2=O)c(C)c1.Cl (stereo not shown) shows pest or weed control at 250 g/ha at minimum 90%?
MET

----------
System: wheat
Test: Post-emergence herbicidal activity against cereal crops (wheat) +/- safener, crop selectivity
Assay type: in vivo
Settings: 250 g/ha, plus safener cloquintocet-mexyl (CQC) applied at 50 g/ha, 100%=total damage to plant, 0%=no damage
reported_property: Post-emergence herbicidal activity against wheat (percentage phytotoxicity), +CQC

Field: example entries. Status: answers known.
[[record]]
compound = "Cc1cc(C)c(C2C(=O)CC(CCNC(=O)NC(=O)c3ccccc3F)C2=O)c(C)c1 (centres unmarked)"
system = "wheat"
observed_value = "80%"

[[record]]
compound = "Cc1cc(C)c(C2C(=O)CC(CCNS(=O)(=O)c3ccc(C(F)(F)F)cc3)C2=O)c(C)c1 (centres unmarked)"
system = "wheat"
observed_value = "0%"

[[record]]
compound = "Cc1cc(C)c(C2C(=O)CC(CCNC(=O)C3=NOC(C)(C)C3)C2=O)c(C)c1 (centres unmarked)"
system = "wheat"
observed_value = "80%"


Indicate its recorded Post-emergence herbicidal activity against wheat (percentage phytotoxicity), +CQC; the compound in question is CCS(=O)(=O)NCCC1CC(=O)C(c2c(C)cc(C)cc2C)C1=O (centres unmarked)
10%

Indicate its recorded Post-emergence herbicidal activity against wheat (percentage phytotoxicity), +CQC; the compound in question is Cc1cc(C)c(C2C(=O)CC(CCNC(=O)NCc3ccccc3)C2=O)c(C)c1 (centres unmarked)
0%

Indicate its recorded Post-emergence herbicidal activity against wheat (percentage phytotoxicity), +CQC; the compound in question is Cc1cc(C)c(C2C(=O)CC(CCNC(=O)Nc3ncccn3)C2=O)c(C)c1 (centres unmarked)
40%

Indicate its recorded Post-emergence herbicidal activity against wheat (percentage phytotoxicity), +CQC; the compound in question is Cc1cc(C)c(C2C(=O)CC(CCNc3ncc(C(F)(F)F)cc3Cl)C2=O)c(C)c1 (centres unmarked)
10%

Indicate its recorded Post-emergence herbicidal activity against wheat (percentage phytotoxicity), +CQC; the compound in question is Cc1cc(-n2cc(Cl)cn2)cc(C)c1C1C(=O)CC(CCNC(=O)Nc2ccc(F)cn2)C1=O (centres unmarked)
20%

Indicate its recorded Post-emergence herbicidal activity against wheat (percentage phytotoxicity), +CQC; the compound in question is Cc1cc(C)c(C2C(=O)CC(CCNS(=O)(=O)c3cccs3)C2=O)c(C)c1 (centres unmarked)
0%

Indicate its recorded Post-emergence herbicidal activity against wheat (percentage phytotoxicity), +CQC; the compound in question is Cc1cc(C)c(C2C(=O)CC(CCNC(=O)NC(=O)c3ccc(Cl)c(Cl)c3)C2=O)c(C)c1 (centres unmarked)
0%
